conditions: in n-butanol, 318.15 K
Measure: solubility (mole fraction)

What does the data say about its solubility (mole fraction)? Entry: `O=C(O)CNC(=O)c1ccccc1` 0.0151

----------
details: in methanol, 298.15 K
Measure: solubility (mole fraction)
Give the figure by itself; no unit, no explanation.

What does the data say about its solubility (mole fraction)? Entry: `O=C(O)CNC(=O)c1ccccc1` 0.0179

----------
conditions: in methanol, 318.15 K
Measure: solubility (mole fraction)
Give the figure by itself; no unit, no explanation.

What does the data say about its solubility (mole fraction)? Entry: `O=C(O)CNC(=O)c1ccccc1` 0.0323

----------
conditions: in methanol, 303.15 K
Measure: solubility (mole fraction)
Give the figure by itself; no unit, no explanation.

What does the data say about its solubility (mole fraction)? Entry: `O=C(O)CNC(=O)c1ccccc1` 0.0197
